conditions: in 2-butanone, 303.15 K
Reported metric: solubility (mole fraction)
# answer = number (no unit)

State the recorded solubility (mole fraction) for this entry: C=CC(=O)N1CCC[C@@H](n2nc(-c3ccc(Oc4ccccc4)cc3)c3c(N)ncnc32)C1 0.0114

----------
conditions: in 2-butanone, 283.15 K
Reported metric: solubility (mole fraction)
The response must contain the number and no unit.

Please report the recorded solubility (mole fraction) for C=CC(=O)N1CCC[C@@H](n2nc(-c3ccc(Oc4ccccc4)cc3)c3c(N)ncnc32)C1 . 0.00628

----------
settings: in isopropanol, 293.15 K
Reported metric: solubility (mole fraction)
Respond using a number only.

Report solubility (mole fraction) for C=CC(=O)N1CCC[C@@H](n2nc(-c3ccc(Oc4ccccc4)cc3)c3c(N)ncnc32)C1 please. 0.000947
